molecular target: cynomolgus LIV-1 (cynomolgus, UniProt A0A2K5WH46 30-741); assay: FACS, HEK293/Cyno_LIV-1 cells
Sequence (A0A2K5WH46 entry or part of it): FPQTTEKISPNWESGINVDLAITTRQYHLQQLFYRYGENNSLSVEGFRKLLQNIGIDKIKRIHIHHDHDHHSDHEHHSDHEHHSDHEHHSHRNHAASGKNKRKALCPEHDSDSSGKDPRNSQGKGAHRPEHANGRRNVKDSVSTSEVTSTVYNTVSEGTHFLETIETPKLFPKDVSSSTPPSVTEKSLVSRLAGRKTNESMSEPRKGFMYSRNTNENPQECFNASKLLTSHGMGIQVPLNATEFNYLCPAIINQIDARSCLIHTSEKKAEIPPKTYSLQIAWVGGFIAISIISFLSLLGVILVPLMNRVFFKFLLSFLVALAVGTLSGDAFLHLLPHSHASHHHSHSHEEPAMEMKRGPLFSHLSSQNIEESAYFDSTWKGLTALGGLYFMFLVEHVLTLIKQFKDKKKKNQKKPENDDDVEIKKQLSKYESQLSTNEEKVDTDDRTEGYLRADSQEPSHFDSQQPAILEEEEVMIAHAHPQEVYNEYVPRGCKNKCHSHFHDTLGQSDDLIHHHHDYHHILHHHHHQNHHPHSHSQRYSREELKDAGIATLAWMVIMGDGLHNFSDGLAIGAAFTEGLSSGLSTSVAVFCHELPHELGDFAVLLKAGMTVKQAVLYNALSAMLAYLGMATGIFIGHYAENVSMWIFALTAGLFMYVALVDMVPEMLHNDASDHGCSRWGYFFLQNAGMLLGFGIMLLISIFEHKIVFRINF
The entries below come with measured Top (MFI) values attached.

124H4D11.p2.z2 (antibody, V domains shown) VH: QVQLVQSGAEVVKPGASVKVSCKASGFNIKDYYMHWVRQAPGQGLEWIGWIDPENDDTEYDPKFQGRVTMTADTSTSTVYMELSSLRSEDTAVYYCAARYYAFDYWGQGTMVTVSS VL: DVLMTQSPSSLSASVGDRVTITCRSSQSIVHSNANTYLEWYLQKPGKSPKLLIYKVSNRFSGVPDRFSGSGSGTEFTLTISSVQPEDFAVYYCFQGSQVPPTFGQGTRLEIK    8390 MFI
124H4D11.p2.z3 (antibody, V domains shown) VH: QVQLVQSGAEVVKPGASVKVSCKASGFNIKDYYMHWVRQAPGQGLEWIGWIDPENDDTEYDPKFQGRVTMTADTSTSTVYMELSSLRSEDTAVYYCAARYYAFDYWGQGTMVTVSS VL: DVLMTQSPSSLSVSVGDRATISCRSSQSIVHSNANTYLEWYLQKPGKSPKLLIYKVSNRFSGVPDRFSGSGSGTEFTLTISSVQPEDFGVYYCFQGSQVPPTFGGGTRLEIK    8300 MFI

Prompt: Quick check: Top (MFI) of 124H4D11.p2.z13 (antibody, V domains shown) VH: QVPLVQSGAEVVKPGASVKLSCKASGFNIKDYYMHWVKQAPGQGLEWIGWIDPENDDTEYDPKFQGRATMTADTSTSTAYLELSSLRSEDTAVYYCNARYYAFDYWGQGTTVTVSS VL: DVLMTQSPSSLSVSVGDRATISCRSSQSIVHSNANTYLEWYLQKPGKSPKLLIYKVSNRFSGVPDRFSGSGSGTEFTLTISSVQPEDFGVYYCFQGSQVPPTFGGGTRLEIK ?
Response: 9030 MFI
